Recorded normalized growth by entry
- Experiment notes: chemical genetic growth profiling, strain panel (AID 1159580);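 further: tested at 20 µM; growth read once vehicle control cultures reached saturation at 30 °C; 1 = growth at the plate median or of vehicle wells; lower values mean less growth of the strain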
- Protocol conditions: S. cerevisiae deletion strains, growth OD, locus YDL192W, strain arf1, active compounds read low
The campaign covered roughly 5,500 compounds. About 2,000 (36%) were called active. Not shown: some 18% with an inconclusive outcome. The list shows a part of the results. Where a SMILES comes first, the peptide text is derived from it.
Please give only the number in your answer, with no unit.

Below, 3 molecules whose answers are already recorded.
NCCCCCC(=O)O
1.01
O=C(O)C(O)C(O)C(=O)O (centres undefined)
0.985
Cc1cc(CC(=O)O)n(C)c1C(=O)c1ccc(Cl)cc1
1.01

Q) For the molecule Cc1ccc(C(=O)c2ccc(CC(=O)O)n2C)cc1 , give its measured normalized growth value.
A) 0.98

Q) For the molecule NC(C(=O)O)C(O)C(=O)O (centres undefined) , give its measured normalized growth value.
A) 1.02

Q) For the molecule COc1ccc2c(c1)OCC(Cc1ccc(OC)c(OC(C)=O)c1)C2=O (centres undefined) , give its measured normalized growth value.
A) 1

Q) For the molecule Clc1ccc(COC(Cn2ccnc2)c2ccc(Cl)cc2Cl)cc1 (centres undefined) , give its measured normalized growth value.
A) 0.0606

Q) For the molecule Cc1onc(-c2ccccc2)c1-c1ccc(S(N)(=O)=O)cc1 , give its measured normalized growth value.
A) 0.997

Q) For the molecule CCCCCCCCCCCCCC(=O)OC1C(C)C2(O)C(C=C(CO)CC3(O)C(=O)C(C)=CC32)C2C(C)(C)C12OC(C)=O (centres undefined) , give its measured normalized growth value.
A) 0.997

Q) For the molecule CN[C@@H]1C(OC2[C@H](O[C@H]3[C@H](O)[C@@H](O)[C@H](N=C(N)N)[C@@H](O)[C@@H]3N=C(N)N)OC(C)[C@]2(O)CO)OC(CO)C(O)C1O (some centres undefined) , give its measured normalized growth value.
A) 0.989

Q) For the molecule NCCCCC(=O)O , give its measured normalized growth value.
A) 0.992

Q) For the molecule O=C(O)CCCCCCCC(=O)O , give its measured normalized growth value.
A) 0.984

Q) For the molecule COc1ccc2c(c1)OCC(Cc1ccc(OC)c(OC)c1)C2=O (centres undefined) , give its measured normalized growth value.
A) 0.986

Q) For the molecule c1ccc2c(CC3=NCCN3)cccc2c1 , give its measured normalized growth value.
A) 1.02

Q) For the molecule NCCCC(=O)O , give its measured normalized growth value.
A) 1.02

Q) For the molecule NCCCCNCCCN , give its measured normalized growth value.
A) 0.983

Q) For the molecule COc1cc2c(cc1OC)C1(O)C(=O)c3ccc(O)c(C(=O)O)c3OC1CO2 (centres undefined) , give its measured normalized growth value.
A) 1.02

Q) For the molecule NCCCNCCSP(=O)(O)O , give its measured normalized growth value.
A) 0.986

Q) For the molecule COC1C=CC23c4cc5c(cc4CN(CC2O)[C@@H]3C1)OCO5 (some centres undefined) , give its measured normalized growth value.
A) 0.982

Q) For the molecule O=C(O)CCC1NCC2CC1CN1CCCCC21 (centres undefined) , give its measured normalized growth value.
A) 0.998

Q) For the molecule Clc1ccc(COC(Cn2ccnc2)c2ccc(Cl)cc2Cl)c(Cl)c1 (centres undefined) , give its measured normalized growth value.
A) 0.0597

Q) For the molecule CC(=O)O[C@H]1C[C@@]2(C)[C@@H](C[C@@H](O)C3[C@]2(C)CC[C@H]2[C@H](C)[C@H](O)CC[C@]32C)/C1=C(/CCC=C(C)C)C(=O)O (some centres undefined) , give its measured normalized growth value.
A) 1.03

Q) For the molecule Cc1cc(/C=C/c2ccc3cc(N(C)C)ccc3[n+]2C)c(C)n1-c1ccccc1 , give its measured normalized growth value.
A) 0.987

Q) For the molecule CC(=O)N[C@@H](CC(=O)O)C(=O)N[C@@H](CCC(=O)O)C(=O)O (Ac-Asp-Glu-OH) , give its measured normalized growth value.
A) 0.996
